# measurement.protocol: chemical genetic growth profiling, strain panel (AID 1159580);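 note: tested at 20 µM; growth read once vehicle control cultures reached saturation at 30 °C; 1 = growth at the plate median or of vehicle wells; lower values mean less growth of the strain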
# applied.conditions: S. cerevisiae deletion strains, growth OD, locus YAR019C, strain CDC15
Out of some 5,500 compounds screened, about 2,000 (36%) were called active. Roughly 18% stayed inconclusive and do not appear here. Cut-off read from the data, not from the text of the source: active = normalized growth mostly below about 0.91 (no sharp cut-off); inconclusive = no clear call, values can overlap the other calls; inactive = mostly above about 0.92. The list shows a part of the results.
Labels: 1 = active, 0 = inactive

                                   compound  qualitative_label
0  CCOC(=O)C1C(c2ccc(Br)cc2)C(C(=O)OCC)C(O)(C(F)(F)F)NC1(O)C(F)(F)F (stereo not given)                  0
1    CCCCCc1ccc(S(=O)(=O)Nc2ncc(C)cc2Br)cc1                  0
2  O=C(OCc1ccc(Oc2ccc(Cl)cc2Cl)c([N+](=O)[O-])c1)c1ccc([N+](=O)[O-])o1                  0
3  Cc1nc(C(F)(F)F)ccc1-c1nnc(SC(=O)c2ccc(Cl)cc2)o1                  1
4  O=C(NNc1c(Cl)cccc1Cl)c1ccc([N+](=O)[O-])o1                  0

----------
# measurement.protocol: chemical genetic growth profiling, strain panel (AID 1159580);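 note: tested at 20 µM; growth read once vehicle control cultures reached saturation at 30 °C; 1 = growth at the plate median or of vehicle wells; lower values mean less growth of the strain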
# applied.conditions: S. cerevisiae deletion strains, growth OD, locus YJL154C, strain vps35, hits give low values
Screen size: about 5,500 compounds; about 2,000 (36%) were called active. Inconclusive results (about 18%) are left out. The list shows a part of the results.
readout.label: normalized growth

In [3]: df
Out[3]:
                                    compound  reported_measurement
 0  OCCN1CCN(CCCN2c3ccccc3Sc3ccc(Cl)cc32)CC1       1.01 (inactive)
 1  N#Cc1ccc2c(c1)N(CCCN1CCC(O)CC1)c1ccccc1S2      0.987 (inactive)
 2  C[C@]12C=CC(=O)C=C1CCC1C2C(=O)C[C@@]2(C)C1CC[C@]2(O)C(=O)CO (stereo partly drawn)          1 (inactive)
 3             COc1ccc2c(=O)c(CC(=O)O)coc2c1      0.987 (inactive)
 4  CC1=C(C(=O)O)N2C(=O)[C@@H](NC(=O)[C@H](N)C3=CCC=CC3)C2SC1 (stereo partly drawn)       1.01 (inactive)
 5   Cn1cnc([N+](=O)[O-])c1Sc1ncnc2nc[nH]c12       1.02 (inactive)
 6  CC1(C)S[C@@H]2[C@H](NC(=O)COc3ccccc3)C(=O)N2[C@H]1C(=O)O      0.988 (inactive)
 7       CCS(=O)(=O)CCn1c([N+](=O)[O-])cnc1C      0.984 (inactive)
 8  CCOc1ccc(Cc2nccc3cc(OCC)c(OCC)cc23)cc1OCC      0.973 (inactive)
 9  CCOC(=O)C1=C(C)NC(C)=C(C(=O)OC)C1c1cccc([N+](=O)[O-])c1 (stereo not drawn)       1.02 (inactive)
10                O=C(O)c1cc2cc(Cl)ccc2[nH]1      0.985 (inactive)
11                 Cc1ncc([N+](=O)[O-])n1CCO      0.963 (inactive)
12  O=c1[nH]c2ccccc2n1CCCN1CCC(n2c(=O)[nH]c3cc(Cl)ccc32)CC1      0.958 (inactive)
13     COc1ccc(Cc2nccc3cc(OC)c(OC)cc23)cc1OC          1 (inactive)
14  COc1c2c(cc3occ(-c4ccc5c(c4)OCO5)c(=O)c13)OC(C)(C)C=C2       1.02 (inactive)
15       O=C1c2ccccc2C(=O)c2c(O)c(O)cc(O)c21        0.489 (active)
16               N#C/C(=C\c1ccc(O)cc1)C(=O)O      0.975 (inactive)
17                        O=C(O)c1cccc(O)c1O       1.02 (inactive)
18                 COc1c2occc2cc2ccc(=O)oc12      0.984 (inactive)
19  CC(=O)OC1CCC23C(=O)OC45CCC(C6=CC(=O)OC6)C4(C)CCC2C5CCC3(O)C1 (stereo not drawn)      0.988 (inactive)
20       Cc1cccc(N(C)C(=S)Oc2ccc3ccccc3c2)c1      0.998 (inactive)
21  C[C@]12CCC3C(CC[C@H]4C[C@@H](O)CC[C@]34C)C1CCC2=O (stereo partly drawn)       1.06 (inactive)
22            CN1CCN(C(c2ccccc2)c2ccccc2)CC1      0.999 (inactive)
23  CCCc1nc(C(C)(C)O)c(C(=O)OCc2oc(=O)oc2C)n1Cc1ccc(-c2ccccc2-c2nn[nH]n2)cc1      0.966 (inactive)
24  CCCCC(=O)N(Cc1ccc(-c2ccccc2-c2nn[nH]n2)cc1)[C@H](C(=O)O)C(C)C      0.986 (inactive)
25  COC(=O)C1=CO[C@@H](O[C@@H]2O[C@H](CO)[C@@H](O)[C@H](O)[C@H]2O)[C@@H]2[C@@H](C)[C@@H](O)C[C@H]12       1.01 (inactive)
26                COc1cc(OC)c(C(C)=O)c(O)c1C      0.939 (inactive)
27                                      NCCS      0.988 (inactive)
28      O=C(O)CCCN1C(=O)c2cccc3cccc(c23)C1=O       1.01 (inactive)
29            C=C(C)c1cc2cc(C(C)=O)c(O)cc2o1      0.983 (inactive)
30            Cn1c([N+](=O)[O-])cnc1COC(N)=O       1.01 (inactive)
31              Cn1c(=O)[nH]c(=O)c2[nH]cnc21      0.998 (inactive)
32  CC1=C2CCC3C(CC[C@]4(C)C(=O)CCC34)[C@@]2(C)CCC1=O (stereo partly drawn)      0.993 (inactive)
33                    O=c1ccc2ccc(O)c(O)c2o1       1.01 (inactive)
34  C[N+]1(C)C2CC[C@H]1CC(OC(=O)C(O)c1ccccc1)C2 (stereo partly drawn)      0.993 (inactive)
35  Cc1cc(O)c2c(c1O)C(=O)c1c(O)cc(C)c(O)c1C2=O      0.971 (inactive)
36  C[C@]12CCC3C(CC[C@H]4CC(=O)CC[C@]34C)C1CCC2=O (stereo partly drawn)       1.03 (inactive)
37  Cc1c(N(C)CS(=O)(=O)O)c(=O)n(-c2ccccc2)n1C       1.01 (inactive)

Values from PubChem BioAssay AID1159580
